All values here come from ChEMBL document CHEMBL1641518.

experimental_target: Tubulin (Sus scrofa, UniProt P02554+P02550)
experiment_description: Inhibition of porcine brain tubulin polymerization by microtubule assembly assay
readout_name: IC50
Include the unit right after the number.

See these solved cases before continuing.
[[record]]
compound = "CC[C@H](C)[C@H](NC(=O)[C@H]1CCCCN1C)C(=O)N[C@@H](C[C@@H](OC(C)=O)c1nc(C(=O)N[C@@H](Cc2ccccc2)C[C@H](C)C(=O)O)cs1)C(C)C [13-EPI-TUBULYSIN D]"
reported_measurement = "1700 nM"

[[record]]
compound = "CC[C@H](C)[C@H](NC(=O)[C@H]1CCCCN1C)C(=O)N[C@H](C[C@H](OC(C)=O)c1nc(C(=O)N[C@@H](Cc2ccccc2)C[C@H](C)C(=O)O)cs1)C(C)C [11-EPI-TUBULYSIN D]"
reported_measurement = "1400 nM"

[[record]]
compound = "CC[C@H](C)[C@H](NC(=O)[C@H]1CCCCN1C)C(=O)N[C@@H](C[C@H](OC(C)=O)c1nc(C(=O)N[C@@H](Cc2ccccc2)C[C@H](C)C(=O)O)cs1)C(C)C"
reported_measurement = "6300 nM"


q: Requested field: IC50. Item: CC[C@H](C)[C@H](NC(=O)[C@H]1CCCCN1C)C(=O)N(COC(=O)CC(C)C)[C@H](C[C@@H](OC(C)=O)c1nc(C(=O)N[C@@H](Cc2ccccc2)C[C@H](C)C(=O)O)cs1)C(C)C [TUBULYSIN D]
a: 1700 nM
